Where do the numbers come from? From patent US20140178394A1.

# EXPERIMENTAL_SYSTEM: T1, HLA-A*0201 HLA class I MHC monomer (iTopia Epitope Discovery System, coated on plate) (human)
# T1 construct: Placeholder peptide stripped; also called HLA-A2; MHC class I monomer
# MEASUREMENT_NOTES: iTopia EDS off-rate assay at 37 C; time to 50% complex dissociation
Exercise: state measured T½ Value for each of the binders provided.
# number only, unit h dropped from output

Qu. Which T½ Value is reported for this binder? VLVPPLPSL (Synthetic nonapeptide of human nectin4; the range counts on nectin4) [antigen peptide N4-145 (VLVPPLPSL)]
Ans. 7.4

Qu. Which T½ Value is reported for this binder? SASVVVVGV (Synthetic nonapeptide of human nectin4; the range counts on nectin4) [Nectin4 peptide 347 (SASVVVVGV)]
Ans. 3.7

Qu. Which T½ Value is reported for this binder? ILHVSFLAE (Synthetic nonapeptide of human nectin4; the range counts on nectin4) [Nectin4 peptide 239 (ILHVSFLAE)]
Ans. 2.3

Qu. Which T½ Value is reported for this binder? AVTSEFHLV (Synthetic nonapeptide of human nectin4; the range counts on nectin4) [Nectin4 peptide 203 (AVTSEFHLV)]
Ans. 3.5

Qu. Which T½ Value is reported for this binder? FLAEASVRG (Synthetic nonapeptide of human nectin4; the range counts on nectin4) [Nectin4 peptide 244 (FLAEASVRG)]
Ans. 2.8

Qu. Which T½ Value is reported for this binder? VVVGVIAAL (Synthetic nonapeptide of human nectin4; the range counts on nectin4) [Nectin4 peptide 351 (VVVGVIAAL)]
Ans. 3.4

Qu. Which T½ Value is reported for this binder? GVIAALLFC (Synthetic nonapeptide of human nectin4; the range counts on nectin4) [Nectin4 peptide 354 (GVIAALLFC)]
Ans. 6.2

Qu. Which T½ Value is reported for this binder? AALLFCLLV (Synthetic nonapeptide of human nectin4; the range counts on nectin4) [Nectin4 peptide 357 (AALLFCLLV)]
Ans. 3.8

Qu. Which T½ Value is reported for this binder? LVSASVVVV (Synthetic nonapeptide of human nectin4; the range counts on nectin4) [Nectin4 peptide 345 (LVSASVVVV)]
Ans. 2.3

Qu. Which T½ Value is reported for this binder? RSYSTLTTV (Synthetic nonapeptide of human nectin4; the range counts on nectin4) [Nectin4 peptide 443 (RSYSTLTTV)]
Ans. 2.4

Qu. Which T½ Value is reported for this binder? LLLLASFTG (Synthetic nonapeptide of human nectin4; the range counts on nectin4) [Nectin4 peptide 19 (LLLLASFTG)]
Ans. 2.1

Qu. Which T½ Value is reported for this binder? LLASFTGRC (Synthetic nonapeptide of human nectin4; the range counts on nectin4; also called Pep N° 21) [Nectin4 peptide 21 (LLASFTGRC)]
Ans. 6

Qu. Which T½ Value is reported for this binder? ALLFCLLVV (Synthetic nonapeptide of human nectin4; the range counts on nectin4) [Nectin4 peptide 358 (ALLFCLLVV)]
Ans. 6.1

Qu. Which T½ Value is reported for this binder? FQARLRLRV (Synthetic nonapeptide of human nectin4; the range counts on nectin4) [Nectin4 peptide 137 (FQARLRLRV)]
Ans. 7.3
